- Measurement description: Drug concentration in C57BL/6J mouse plasma at 100 mg/kg, sc measured after 1 hrs by LC-MS/MS analysis
- Type: ADME, organism-based
Property name: concentration at 1 h (ng/mL)
# value in ng/mL; strip the unit string

Prompt line: Reported concentration at 1 h, compound CO[C@H]1[C@H](O)[C@@H](O)c2nc(CCc3cccc(Oc4ccccc4)c3)cn2[C@@H]1C(=O)O : ____
Response line: 24200

====

- Measurement description: Total clearance in C57BL/6J mouse at 0.5 mg/kg, iv measured after 0.083 to 24 hrs by LC-MS/MS analysis
- Format: ADME, organism-based
- Settings: in vivo, time 0.083-24 hrs
Property name: clearance (mL/min/kg)
Use mL/min/kg as the unit, but write only the number.

O=C(O)[C@@H]1[C@@H](O)[C@H](O)[C@@H](O)c2nc(CCc3cccc(Oc4ccccc4)c3)cn21 8.18

API: the following record is the query input.
Prompt line: What measured clearance goes with CO[C@H]1[C@H](O)[C@@H](O)c2nc(CCc3cccc(Oc4ccccc4)c3)cn2[C@@H]1C(=O)O ?
Response line: 5.83

The reported numbers originate from ChEMBL document CHEMBL5370579.
